Value source: paper PMC4757823

Ki tested on human MOR (Homo sapiens): recorded values
Sequence (P35372 whole entry): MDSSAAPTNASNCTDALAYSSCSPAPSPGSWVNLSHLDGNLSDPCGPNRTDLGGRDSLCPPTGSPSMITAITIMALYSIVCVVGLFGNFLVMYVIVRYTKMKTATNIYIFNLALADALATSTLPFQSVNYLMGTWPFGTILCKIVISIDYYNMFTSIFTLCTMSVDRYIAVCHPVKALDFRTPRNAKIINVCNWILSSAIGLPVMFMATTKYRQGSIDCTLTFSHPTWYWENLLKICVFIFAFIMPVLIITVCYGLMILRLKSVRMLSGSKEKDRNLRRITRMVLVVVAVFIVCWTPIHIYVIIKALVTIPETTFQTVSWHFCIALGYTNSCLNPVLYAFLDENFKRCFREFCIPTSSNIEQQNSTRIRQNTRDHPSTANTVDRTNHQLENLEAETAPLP
Record the result as number plus unit.

COc1ccc(S(=O)(=O)N2CCCN(c3c(Cl)cncc3Cl)CC2)cc1OC : 7.01 µM

From here, focus on the item given below.
Input Cc1c(NC(=O)c2ccc(Cl)cc2)cc(-c2ccccc2)n1CCCN1CCOCC1 . Output Ki: 10.7 µM
